# credit: ChEMBL document CHEMBL4007448

# Test system: KB
# procedureText: Cytotoxicity against human KB cells assessed as reduction in cell viability after 48 hrs by MTT assay
# Assay type: functional, cell-based
Would you mind telling me the reported IC50 of each entry?
Write the value in µM as a bare number.

-- ask # query: IC50 of entry C[C@@H]1O[C@@H](O[C@H]2[C@H](O[C@H]3CC[C@@]4(C)[C@@H](CC[C@]5(C)[C@@H]4CC=C4[C@@H]6CC(C)(C)CC[C@]6(C(=O)O)CC[C@]45C)[C@]3(C)CO)OC[C@H](O)[C@@H]2O)[C@H](O)[C@@H](O)[C@H]1O
-- reply 20.7

-- ask # query: IC50 of entry CC1(C)CC[C@]2(C(=O)O)CC[C@]3(C)C(=CC[C@@H]4[C@@]5(C)CC[C@H](O)[C@@](C)(CO)[C@@H]5CC[C@]43C)[C@@H]2C1
-- reply 14.6

-- ask # query: IC50 of entry CC1(C)CC[C@]2(C(=O)N3CCN(CCC(=O)O)CC3)CC[C@]3(C)C(=CC[C@@H]4[C@@]5(C)CC[C@H](O)[C@@](C)(CO)[C@@H]5CC[C@]43C)[C@@H]2C1
-- reply 15

-- ask # query: IC50 of entry COC(=O)CCN1CCN(C(=O)[C@]23CCC(C)(C)C[C@H]2C2=CC[C@@H]4[C@@]5(C)CC[C@H](OC(C)=O)[C@@](C)(COC(C)=O)[C@@H]5CC[C@@]4(C)[C@]2(C)CC3)CC1
-- reply 5.08
